experimental system: T1, CAPRIN-1 protein expressed on the membrane surface of human cancer cells (human, UniProt Q14444 2-709)
T1 sequence (looked up): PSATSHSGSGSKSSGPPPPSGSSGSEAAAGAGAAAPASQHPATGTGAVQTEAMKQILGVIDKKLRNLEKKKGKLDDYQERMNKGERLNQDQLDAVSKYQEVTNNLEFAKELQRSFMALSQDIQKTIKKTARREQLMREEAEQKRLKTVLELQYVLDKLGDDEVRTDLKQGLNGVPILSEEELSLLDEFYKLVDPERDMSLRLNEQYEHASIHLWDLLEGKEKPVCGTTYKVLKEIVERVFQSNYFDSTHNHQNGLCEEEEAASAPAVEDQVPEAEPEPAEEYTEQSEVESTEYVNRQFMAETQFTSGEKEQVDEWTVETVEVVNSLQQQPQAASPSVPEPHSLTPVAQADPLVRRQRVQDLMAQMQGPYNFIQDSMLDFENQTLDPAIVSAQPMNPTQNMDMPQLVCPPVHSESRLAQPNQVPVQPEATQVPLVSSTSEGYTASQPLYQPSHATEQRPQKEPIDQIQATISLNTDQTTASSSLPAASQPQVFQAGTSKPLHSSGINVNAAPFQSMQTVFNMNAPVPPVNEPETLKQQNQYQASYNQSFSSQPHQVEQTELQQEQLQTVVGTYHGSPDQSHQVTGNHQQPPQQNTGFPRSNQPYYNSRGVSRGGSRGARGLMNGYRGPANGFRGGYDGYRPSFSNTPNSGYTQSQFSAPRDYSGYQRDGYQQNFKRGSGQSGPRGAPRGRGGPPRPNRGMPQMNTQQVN
protocol notes: cell-based or functional assay
experimental readout: ADCC cytotoxic activity (51Cr release) on HT-1080

Lookup: Which ADCC cytotoxic activity (51Cr release) on HT-1080 value belongs to humanized antibody #3 (antibody, V domains shown) VH: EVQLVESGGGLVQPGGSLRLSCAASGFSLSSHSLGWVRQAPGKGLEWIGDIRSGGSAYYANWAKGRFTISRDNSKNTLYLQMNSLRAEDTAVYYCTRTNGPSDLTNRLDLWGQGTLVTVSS VL: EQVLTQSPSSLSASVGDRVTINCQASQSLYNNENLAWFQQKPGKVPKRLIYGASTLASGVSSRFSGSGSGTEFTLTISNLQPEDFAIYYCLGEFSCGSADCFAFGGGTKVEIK ?
Found: ≥ 25%

Source of measurements: patent US20160297889A1
